Assay: yeast display, Sf9 membrane polyspecificity reagent, FACS + sequencing; frameworks hold sequencing errors
observable: polyreactivity (PSR sort gate)

sequence.data	experimental.value
QVQLVESGGGLVQAGGSLRLSCAASGRIFYFNVMGWYRQAPGKVRELVAAIRWSVGTTYYADSVKGRFTISRDNAKNTVYLQMNSLKPEDTAVYYCAARRSFPLGTARMYYWGQGTQVTVSS	high polyreactivity
QVQLVESGGGLVQAGGSLRLSCAASGRTFPGKAMGWYRQAPGKERELVAAISKSSSRTYYADSVKGRFTISRDNAKNTVYLQMNSLKAEDTAVYYCAASSFNNGHRYDYWGQGTQVTVSS	high polyreactivity
QVQLVESGGGLVQAGGSLRLSCAASGRTFWSNAMGWYRQAPGKEREFVAVISRSGSTTYYADSVKGRYTISRDNAKKTVYLQMISLKPEDTAFYNCAADRVRSYFSRYYSTPLDYYWGQGTQVTVSS	high polyreactivity

====

Assay: yeast display, Sf9 membrane polyspecificity reagent, FACS + sequencing; frameworks hold sequencing errors
observable: polyreactivity (PSR sort gate)

Guide cases for polyreactivity (PSR sort gate), answers given:
sequence.data	observable	experimental.value
QVQLVESGGGLDQAGGSLRLICAASGSTFISNVMGWYRPAPGKERELVAAITRSSGRTYYADSVKGRFTISRDNAKNTVYLQMNSLKPEDTAVYYCAARPRGRGVDYWGQGTQVTVSS	polyreactivity (PSR sort gate)	high polyreactivity
QVQLVESGGGLVQAGGSLRLSCAASGRIFRTYAMGWYRQAPGKERELVAAISYSGGSTFYADSVKGRFTISRDNAKNSVYLQMNSLKPESTAVYYCAADSRAKRYYWGQGTQVTVSS	polyreactivity (PSR sort gate)	high polyreactivity
QVQLVESGGGLVQAGGSLRLSCAASGFIFRYYAMGWSRQAPGIEMELVAAINASGGRTYYADSVKGRFTISRDNARNTVYLQMNSLKPEDTAVYYCAAYRSYQTFDYWGQGTQVTVSS	polyreactivity (PSR sort gate)	high polyreactivity
QVQLVESGGGLVQAGGSLRLSCAASGSIFDPNAMGWYRQAPGKERELVAVITWSSSSTYYADSVKGRFTISRDNAKNTVYLQMNSLKPEDTAVYYCAAVVQGTTVWWGYDYWGQGTLVTVSS	polyreactivity (PSR sort gate)	low polyreactivity

Shifting focus to the sequence that follows.
Just so you know, measured polyreactivity (PSR sort gate) for "QVQIVESGGGLVQAGGSLRLSCAASGRIFVVNDMGWYRPATGKERELVAAINSGGRTNYADSVKGRFTISRDNAKNTVDLQMNSLKREATAVYFCNAKRTGPWFLHVPVYYWGQGTQVTVSS" came out at low polyreactivity

====

Assay: yeast display, Sf9 membrane polyspecificity reagent, FACS + sequencing; frameworks hold sequencing errors
observable: polyreactivity (PSR sort gate)

sequence.data	polyreactivity (PSR sort gate)
QVQLVESGGGLVQAGGSLSLSCAASGRIFSLNVMGWYSQARGKERELVATIRGRGTSTYYADSVKGRFTISRDTAKNTVYLQMNSLKPEDTAVFYCAARGHGAYGYWGQGTQVTVSS	low polyreactivity
QVQLVESGGGIVQAGGSLRLSCAATGFIFDQNAMAWYIQAPGKERELVAAISKRGGSTYYADSVKGRFTISRDNAKNTVYLQMNSLKREDTAVYYGATRSWGPYYYGYNHWGQGTQVTVSS	high polyreactivity
QVQLVESGGGLVQAGGSRRLSCAASGSISGYNAMGWYRQAPGKERELVAVITTDGSTNYADSVKGRFTISRDNAKNTVYLQMNSLKPEDTAVYYCADYVVWLYGYEYWGQGTQVTVSS	low polyreactivity
QVQLVESGGGLVQAGGSLRLSCAASGSIFIWNAMGWYRQAPGKERELVAAISFSGGSTYYADSVKGRFTISRDNAKNTVYLQMNSLKPEDTAVYYCAADSYSGRYYWWEYDYWGQGTQVTVSS	low polyreactivity

Shifting focus to the sequence that follows.
Just so you know, measured polyreactivity (PSR sort gate) for "QVQLVESGGGLGQAGGSLRLSCAASGSTFYRNAMGWYRPAPGKERELVAAISGSDGSTYYADSVKGRFTISRDNAKNTVYLQMNSLKPEDTAVYYCVVAYARKYYYWGQGTQVTVSS" came out at high polyreactivity

====

Test: yeast display, Sf9 membrane polyspecificity reagent, FACS + sequencing; frameworks hold sequencing errors

sequence.data	polyreactivity (PSR sort gate)
QVQLVESRGGLVQAGGSLRLSCAASGRNFRFNAMGWYRQEPGKERELVAAISASGGITYYADSVKGRFTISRDNAKNTVYLQMNSLKPEDSAVYYCAADLYATWSYFFTWLDNWGQGTQVTVSS	high polyreactivity
QVHLVESGGGLVQAGGSLRLSCAASGLTFHRYAMGWYRQAPGKERELVAAINYSGGRTYYADSVKGRFTISRDNAKNSVYLQMNCLKPEDTEVYYCAAPRASGYYWGQGTQGTVSS	high polyreactivity
QVQLVESGRGLVQAGGSLRLSCAASGSTRRYVMGWYRQAPGKERELVAVISRGGSTYYADSVKGRFTISRDNAKNSVYLQMNSLKPEDTAVYYCNGQPVIPRGGDYWGQATQVTVSS	high polyreactivity

====

Test: yeast display, Sf9 membrane polyspecificity reagent, FACS + sequencing; frameworks hold sequencing errors
observable: polyreactivity (PSR sort gate)

Guide cases for polyreactivity (PSR sort gate), answers given:
sequence.data	polyreactivity (PSR sort gate)
QVQLVESGGGLVQAGGSLRLSCAASGRIFTIYAMGWYRQAPGKERELVATISSNVGSTYYADSVKGRFTISRDNAKNTVYLQMNSLKPEDTAVYYCAATRRAGFTTAKFDYWGQGTQVTVSS	high polyreactivity
QVQLVESGGGLVQAGGSLRLSCGASGAIFSRYAMGWSRPAPGKERQLVAAITSSGGSTYYADSVKGRFTISRDNAKNTVYLQMNSLKPEDTAVYYCATQYAGPWGEYDYWGQGTQVTVSS	low polyreactivity
QVQLVESGGGLVQAGGSLRLSCAASGSTFPKYAMGWYRQAPGKERELVAAISWYGGRTYYADSVKGRFTISRDNAKHTVYLQMNSLKPEDTAVYYCAASIPGTRSDGYWGQGTQVTVSS	low polyreactivity
QVQIVESWGGLVQAGGSLRLSCDASGSIFTNANGWYRQAPGKERELVAAISSSGGSTYYADSVKGRFTISRDNAKNTVYLQMNSLKPEDTAVYYCAADHYGGRDYWGQGTQVTVSS	low polyreactivity
QVQLVESGGGLVQAGGSLRLSCAASGRTFVQYVMGWYRQAPGKERELVARISSGGSTFYADSVKGRFTISRDNAKNSVYLQLNSLKPEDTAVYYCAAQWTRYRRRPMDYWGQGTQVTVSS	high polyreactivity

Please state, for each entry, its recorded polyreactivity (PSR sort gate).
1. QVQLVESGGGLVQAGGSLRLSCADSGQNAMGWYRQAPGKERELVAAISRGGDSTYYADSVKGRFTISRDNAKNSVYLQMNSLKPEDTAVYYCAASYYRRYGYNYWGQGTQVTVSS
2. QVQLVESGGGLGQAVGRLRLSCAASGGTFPQYAMGWYRQAPGKEREFVADITSRGGTTYYADSVQGRFTISRDNAKNTVYLQMNSLKPEDTAVYYCAADNPADWWGLDYWGQGTQVTVSS

[A]
["high polyreactivity", "low polyreactivity"]

Please state, for each entry, its recorded polyreactivity (PSR sort gate).
1. QVQLVESGGGLVQAGGSLRLSCAASGSTSSVYAIGWYRQAPGKEREFVASITRRTGITFYADSVKGRFTISRDHAKNTVYLQMNSLKPEDTAVYYCAADFSGSVDYWGQGTQVTVSS
2. QVQLVESGGGLVQAGGSLRLSCAASGSTFQTYAMGWYRQAPGKERELVAAITSGGSTNYADSVNGRFTISRDNAKNTVYLQMNSLKPEDTAVYYCAGRQIYQTSEHRLQYDYWGQGTQVTVSS
3. QVQLVESGGGLVQAGGSLRLSCAASGSTFLSYAMGWYRQAPGKERELVATINRGGSTYYADSVKGRFTISRDNAKNTVYLQMNSLKPEDTAVYYCAKANKRGRYNYWGQGTQVTVSS
4. QVQLVESGGGLVQAGGSLRLSCAASGSIFPYYAMGWYRQAPGKERELVAAITGAGSTNYADSVKGRFTISRDNAKNTVYLQMNSLKPEDTAVYYCAADFGSPDKWRDWYDYWGQGTQVTVSS

[A]
1: high polyreactivity; 2: low polyreactivity; 3: high polyreactivity; 4: low polyreactivity

====

Assay: yeast display, Sf9 membrane polyspecificity reagent, FACS + sequencing; frameworks hold sequencing errors
observable: polyreactivity (PSR sort gate)

Guide cases for polyreactivity (PSR sort gate), answers given:
sequence.data	polyreactivity (PSR sort gate)
QVQLVESGGGLVQAGGSLRLTCAASGRTFWRYGMGWYRPAPVKETELVAAITDSVDSTNYADSVKGRFTISRDNAKNTVYLQMNSLKPEDTAVYYCAASDVVFALNGYYPGEDDYWGQGTQVTVSS	low polyreactivity
QVQLVESGGGLVQAGGSLRLICAASGFIFHSYAMGWYRQAPGKERELVARITIGDSTKYADSVKGRFTISRDNAKNTVYLQMNSLKPEDTAVYYCAADGWRYIAYYQGFRRMNYWGQGTQVTVSS	high polyreactivity
QFQHVESGGGLVQAGGSLRLSCAASGNTFYVYAMGWYRQAPGKERELVAGITTSGGSTYYADSVKGRFTISRDNAKNTVYLQMNSLKTEDTAVYYCATDISTSYYYKYSSFYQYDSWGQGTQVTVSS	low polyreactivity
QVQLVESGVGLVQAGGSLRLSCAASGRIFRLYAMGWYRQAPGKERELVAAISSSGGDTYYADSVKGRFTISRDNAKNTVYLQMNSLKPEDTAVYDCNARKRYANVHYNYWGQGTQVTVSS	high polyreactivity
QVQLVESGGGLVQAGGSLRLSCAASGSIFHPYGMGWYRQAPGKVRELVAAMTSSGGDTYYADSVKGRFTISRDNAKNTVYLQMNSLKPEDTAVYYCAATGLPGYYAYDYWGQGTQVTVSS	low polyreactivity
QVQLVESGGGLVQAGGSLRLSCAASGIIFDHYAMGWYRQAPGKERELVAAISTGGGNTYYADSVKGRFTISRDNAKNTVYLQMNSLKPEDTAVYYCAARRGTGSYSYRYPYGYDYWGQGTQVTVSS	low polyreactivity

Please state, for each entry, its recorded polyreactivity (PSR sort gate).
1. QVQLVESAGGLVQAGGSLRLSCAASGSIFPFYAMRWYRQAPGKERELVATINFSGGSTYYADSVKGRFTISRDNAKNTVYLQMNSLKPEDTAVYYCAASYGAKYIVLYDYWGQGTQVTVSS
2. QVQLVESGGGLVQAGGSLRLSCAASGFTFIGYAMGWYRQAPGKERELVAAITQSGGSTFYADSVKGRFTISRDNAKNTVYLQMNSLKPEDTAVYYCNAYRKFRYWGQGTQVTVSS
3. QVQLVESGGGLVQAGGSLRLSCAASGRTFLIYAMGWYRQAPGKERELVAAINNGGSTYYADSVKGRFTISRDNAKNTVYLQMNSLKPEDTAVYYCAARQIRATRYYYWGQGTQVTVSS
4. QVQLVESGGGLVQAGGSLRLSCAASGSIFYGYAMGWYRQAPGKERELVAAITWSGGSTYYADSVKGRFTISRDNAKNTVYLQINSLKPEDTAVYYCNAVSTRFRVRTSDYWGQGTQVTVSS

[A]
low polyreactivity
low polyreactivity
high polyreactivity
high polyreactivity
